assay_target: S1P1 (Homo sapiens (Human), UniProt P21453)
Sequence (P21453 whole entry, species assumed): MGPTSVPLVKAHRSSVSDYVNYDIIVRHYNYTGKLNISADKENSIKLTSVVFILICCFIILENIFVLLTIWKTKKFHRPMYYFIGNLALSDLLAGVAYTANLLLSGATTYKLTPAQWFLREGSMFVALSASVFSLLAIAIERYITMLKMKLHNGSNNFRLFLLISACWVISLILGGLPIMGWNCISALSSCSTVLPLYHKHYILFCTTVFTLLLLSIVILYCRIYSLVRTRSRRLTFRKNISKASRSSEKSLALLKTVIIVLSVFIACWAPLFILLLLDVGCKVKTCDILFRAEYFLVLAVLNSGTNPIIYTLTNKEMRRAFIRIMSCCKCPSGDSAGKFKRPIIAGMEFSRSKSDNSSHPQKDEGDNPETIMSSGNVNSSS
assay_protocol: 35S-GTPγS binding assay, S1P1 membranes
Type: biochemical
cond: membranes from CHO cells expressing S1P1; read-out: S1P1 GTPyS EC50
pEC50: −log10 of the molar value.
Tag: YES if measured pEC50 is not below 6, NO if it is.

Incoming: Is the recorded value of pEC50 equal to or greater than 6 for this compound? COC(=O)CCNCc1ccc(NC(=O)c2cc(N(CC3CC3)C3CCCCC3)ncn2)cc1
Outgoing: YES

Incoming: Param item: CN(CC(=O)OC(C)(C)C)Cc1ccc(NC(=O)c2cc(N(CC3CC3)C3CCCCC3)ncn2)cc1
Outgoing: NO

Incoming: Param item: CCOC(=O)CCCS(=O)(=O)c1ccc(NC(=O)c2cc(N(CC3CC3)C3CCCCC3)ncn2)cc1
Outgoing: NO

Incoming: Param item: CCCN(CC1CC1)c1cc(C(=O)Nc2ccc3nn(CC(=O)OCC)cc3c2)ncn1
Outgoing: YES

Incoming: Param item: Cc1cc(S(=O)(=O)N(C)CC(=O)O)ccc1NC(=O)c1cc(N(CC2CC2)C2CCCCC2)ncn1
Outgoing: YES
